test system: giant foxtail (Setaria faberii); assay: Test A preemergence; assay type: in vivo; details: Setaria faberi, pre-emergence, 240 h, 125 g ai/ha, Preemergence, visual injury rating after approximately 10 d; read-out: Foxtail, Giant plant response rating (0 to 100 scale, 0 is no effect, 100 is complete control)
A collection of compounds and their measured pest or weed control at 125 g/ha
MEASURED_METRIC: pest or weed control at 125 g/ha (%)

>>> result_number("CC(=O)Oc1ccc(F)c(NC(=O)[C@H]2C(=O)N(C)C[C@@H]2c2cc(F)cc(F)c2)c1")
0
>>> result_number("CN1C[C@H](c2ccc(C(F)(F)F)cn2)[C@@H](C(=O)Nc2cccc(F)c2F)C1=O")
90
>>> result_number("Cc1ccc(NC(=O)[C@H]2C(=O)N(C)C[C@@H]2c2cc(F)cc(F)c2)cc1")
80
>>> result_number("Cc1ccc([C@H]2CNC(=O)[C@@H]2C(=O)Nc2cccc(F)c2C)cc1C")
90
>>> result_number("COCc1ccccc1NC(=O)[C@H]1C(=O)N(C)C[C@@H]1c1cccc(C(F)(F)F)c1 (racemic)")
100
